Source of measurements: paper PMC6230509

- Test system: head twitch response (5-HT2A receptor-mediated)
- run.description: Head twitch response
- Type: in vivo, C57BL/6J mice
- assay.setup: 14 mg/kg IP; duration 30 min
Each record is given yes if its reported HTR Counts (mean ± SEM) is strictly below 20. Records at or above 20 are given no.

q: Confirm or reject: HTR Counts (mean ± SEM) of C=CCN(CC=C)CCc1c[nH]c2ccccc12 [DALT, N,N-diallyltryptamine] lies strictly below 20
a: no

q: Confirm or reject: HTR Counts (mean ± SEM) of C=CCN(CC=C)CCc1c(C)[nH]c2ccc(F)cc12 [5-F-2-Me-DALT, 5-fluoro-2-methyl-N,N-diallyltryptamine] lies strictly below 20
a: yes

q: Confirm or reject: HTR Counts (mean ± SEM) of C=CCN(CC=C)CCc1c(C)[nH]c2ccc(OC)cc12 [5-MeO-2-Me-DALT, 5-methoxy-2-methyl-N,N-diallyltryptamine] lies strictly below 20
a: yes

q: Confirm or reject: HTR Counts (mean ± SEM) of C=CCN(CC=C)CCc1c[nH]c2cccc(OC(C)=O)c12 [4-AcO-DALT, 4-acetoxy-N,N-diallyltryptamine] lies strictly below 20
a: no

q: Confirm or reject: HTR Counts (mean ± SEM) of C=CCN(CC=C)CCc1c[nH]c2ccc(F)cc12 [5-F-DALT, 5-fluoro-N,N-diallyltryptamine] lies strictly below 20
a: no

q: Confirm or reject: HTR Counts (mean ± SEM) of C=CCN(CC=C)CCc1c(-c2ccccc2)[nH]c2ccccc12 [2-Ph-DALT, 2-phenyl-N,N-diallyltryptamine] lies strictly below 20
a: yes

q: Confirm or reject: HTR Counts (mean ± SEM) of C=CCN(CC=C)CCc1c[nH]c2ccc(Br)cc12 [5-Br-DALT, 5-bromo-N,N-diallyltryptamine] lies strictly below 20
a: yes

----------
- study.target: α2C (Homo sapiens)
- Sequence (P18825 1-462): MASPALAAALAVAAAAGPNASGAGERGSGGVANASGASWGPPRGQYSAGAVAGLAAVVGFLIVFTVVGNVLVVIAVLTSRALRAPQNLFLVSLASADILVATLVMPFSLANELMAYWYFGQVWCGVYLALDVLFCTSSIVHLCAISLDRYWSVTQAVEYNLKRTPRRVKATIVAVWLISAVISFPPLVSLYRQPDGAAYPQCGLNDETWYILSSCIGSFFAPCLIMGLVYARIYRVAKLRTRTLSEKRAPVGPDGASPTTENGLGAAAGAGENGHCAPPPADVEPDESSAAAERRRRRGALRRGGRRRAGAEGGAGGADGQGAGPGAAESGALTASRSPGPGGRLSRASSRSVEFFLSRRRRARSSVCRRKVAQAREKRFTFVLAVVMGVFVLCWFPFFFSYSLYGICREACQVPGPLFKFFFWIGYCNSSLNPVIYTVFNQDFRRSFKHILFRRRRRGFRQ
- run.description: NIMH PDSP radioligand competition binding, α2C
outcome.measure: Ki (nM)
Expressed in nM, but write only the number.

Noted for `C=CCN(CC=C)CCc1c(-c2ccccc2)[nH]c2ccccc12` : its Ki reads 159

----------
- study.target: UniProt P35372
outcome.measure: Ki

molecule	outcome.measure	data.value
C=CCN(CC=C)CCc1c[nH]c2cccc(OC(C)=O)c12	Ki	> 10 µM
C=CCN(CC=C)CCc1c(-c2ccccc2)[nH]c2ccccc12	Ki	> 10 µM

For `C=CCN(CC=C)CCc1c(C)[nH]c2ccc(F)cc12` on UniProt P35372, measured Ki was > 10 µM

For `C=CCN(CC=C)CCc1c[nH]c2c(CC)cccc12` on UniProt P35372, measured Ki was 2.67 µM

For `C=CCN(CC=C)CCc1c(C)[nH]c2ccc(OC)cc12` on UniProt P35372, measured Ki was > 10 µM

For C=CCN(CC=C)CCc1c[nH]c2cccc(O)c12 [4-HO-DALT, 4-hydroxy-N,N-diallyltryptamine] on UniProt P35372, measured Ki was > 10 µM

----------
- study.target: serotonin transporter (SERT) (Homo sapiens)
outcome.measure: Ki (µM)
Expressed in µM, but write only the number.

compound	data.value
C=CCN(CC=C)CCc1c[nH]c2cccc(O)c12 [4-HO-DALT, 4-hydroxy-N,N-diallyltryptamine]	5.21
C=CCN(CC=C)CCc1c[nH]c2c(CC)cccc12	0.795
C=CCN(CC=C)CCc1c(C)[nH]c2ccc(F)cc12	0.983

Let us move to another entry and its Ki.
Noted for `C=CCN(CC=C)CCc1c[nH]c2cccc(OC(C)=O)c12` : its Ki reads 1.09

----------
In this section we review reported pKi values for a set of compounds.
- study.target: α2A (Homo sapiens)
- Sequence (P08913 1-465): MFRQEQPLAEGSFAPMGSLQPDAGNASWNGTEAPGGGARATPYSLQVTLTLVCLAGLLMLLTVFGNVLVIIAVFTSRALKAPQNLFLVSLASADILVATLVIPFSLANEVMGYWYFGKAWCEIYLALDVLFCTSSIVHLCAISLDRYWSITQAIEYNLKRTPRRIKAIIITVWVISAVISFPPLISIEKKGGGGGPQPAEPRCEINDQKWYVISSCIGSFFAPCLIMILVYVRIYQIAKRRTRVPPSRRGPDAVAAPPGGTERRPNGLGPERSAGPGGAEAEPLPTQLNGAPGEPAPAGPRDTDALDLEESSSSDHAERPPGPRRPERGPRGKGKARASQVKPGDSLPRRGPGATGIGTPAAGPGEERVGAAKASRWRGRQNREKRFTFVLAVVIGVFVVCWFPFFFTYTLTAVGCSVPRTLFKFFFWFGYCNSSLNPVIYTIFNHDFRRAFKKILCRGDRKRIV
# pKi: negative log10 of molar concentration; output just the value

compound	study.target	data.value
C=CCN(CC=C)CCc1c(C)[nH]c2ccc(F)cc12 [5-F-2-Me-DALT, 5-fluoro-2-methyl-N,N-diallyltryptamine]	α2A (Homo sapiens)	7.28

Let us move to another entry and its pKi.
For C=CCN(CC=C)CCc1c[nH]c2cccc(O)c12 [4-HO-DALT, 4-hydroxy-N,N-diallyltryptamine] on α2A (Homo sapiens), measured pKi was 5.92

----------
- study.target: 5-HT1A (Homo sapiens, UniProt P08908)
- Sequence (P08908 1-422): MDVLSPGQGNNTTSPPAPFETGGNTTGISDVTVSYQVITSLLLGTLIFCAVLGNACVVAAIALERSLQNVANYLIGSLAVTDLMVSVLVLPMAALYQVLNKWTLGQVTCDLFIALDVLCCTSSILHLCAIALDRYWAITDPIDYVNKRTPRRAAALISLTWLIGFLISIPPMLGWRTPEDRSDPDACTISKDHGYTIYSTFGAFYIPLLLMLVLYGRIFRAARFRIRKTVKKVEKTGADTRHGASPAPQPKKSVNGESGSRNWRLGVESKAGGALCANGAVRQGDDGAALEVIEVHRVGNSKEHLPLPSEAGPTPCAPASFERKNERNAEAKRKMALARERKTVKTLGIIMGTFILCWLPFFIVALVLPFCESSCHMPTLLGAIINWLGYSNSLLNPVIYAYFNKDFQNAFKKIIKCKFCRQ
Each record is given True if its reported Ki is strictly below 400 nM. Records at or above 400 nM are given False.

molecule	label.value
C=CCN(CC=C)CCc1c[nH]c2cccc(O)c12 [4-HO-DALT, 4-hydroxy-N,N-diallyltryptamine]	True

q: Confirm or reject: Ki of `C=CCN(CC=C)CCc1c(C)[nH]c2ccc(F)cc12` lies strictly below 400 nM
a: True

q: Confirm or reject: Ki of `C=CCN(CC=C)CCc1c(C)[nH]c2ccc(OC)cc12` lies strictly below 400 nM
a: True

q: Confirm or reject: Ki of `C=CCN(CC=C)CCc1c[nH]c2c(CC)cccc12` lies strictly below 400 nM
a: False

q: Confirm or reject: Ki of `C=CCN(CC=C)CCc1c[nH]c2cccc(OC(C)=O)c12` lies strictly below 400 nM
a: True

----------
Dear all, this message contains pKi results, target or system κ-opioid receptor (KOR) (Homo sapiens).
# pKi: negative log10 of molar concentration; output just the value

Reference set (4 entries):
given.smiles	data.value
C=CCN(CC=C)CCc1c(C)[nH]c2ccc(OC)cc12	6.41
C=CCN(CC=C)CCc1c(-c2ccccc2)[nH]c2ccccc12	6.23
C=CCN(CC=C)CCc1c(C)[nH]c2ccc(F)cc12	6.24
C=CCN(CC=C)CCc1c[nH]c2cccc(OC(C)=O)c12	5.28

Let us move to another entry and its pKi.
For `C=CCN(CC=C)CCc1c[nH]c2c(CC)cccc12` on κ-opioid receptor (KOR) (Homo sapiens), measured pKi was 6.24

----------
- study.target: α2B (Homo sapiens, UniProt P18089)
- Sequence (P18089 1-450): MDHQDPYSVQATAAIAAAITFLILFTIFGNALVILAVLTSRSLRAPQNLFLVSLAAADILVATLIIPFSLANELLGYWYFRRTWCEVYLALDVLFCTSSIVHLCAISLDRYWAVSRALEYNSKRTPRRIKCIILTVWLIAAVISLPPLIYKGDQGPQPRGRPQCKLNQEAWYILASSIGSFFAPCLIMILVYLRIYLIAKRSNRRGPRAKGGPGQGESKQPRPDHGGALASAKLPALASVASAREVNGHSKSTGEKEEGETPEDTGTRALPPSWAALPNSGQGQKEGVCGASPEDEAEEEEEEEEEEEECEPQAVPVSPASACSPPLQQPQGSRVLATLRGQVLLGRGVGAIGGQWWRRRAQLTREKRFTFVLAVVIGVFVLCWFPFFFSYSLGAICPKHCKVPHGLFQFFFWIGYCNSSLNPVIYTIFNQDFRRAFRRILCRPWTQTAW
In this section we review reported Ki values for a set of compounds.
Expressed in nM, but write only the number.

given.smiles	Ki [nM]
C=CCN(CC=C)CCc1c[nH]c2cccc(OC(C)=O)c12	170
C=CCN(CC=C)CCc1c(-c2ccccc2)[nH]c2ccccc12	78

Noted for `C=CCN(CC=C)CCc1c(C)[nH]c2ccc(OC)cc12` : its Ki reads 335

Noted for `C=CCN(CC=C)CCc1c[nH]c2c(CC)cccc12` : its Ki reads 489

Noted for `C=CCN(CC=C)CCc1c(C)[nH]c2ccc(F)cc12` : its Ki reads 108
